- assay.info: Aqueous solubility of the compound at pH 6.8 by HPLC
- Format: physicochemical
attribute.measured: solubility (µg/mL)
Output spec: scalar in µg/mL, unitless text.

Below, each entry is followed by its recorded solubility result.
compound=CCC(CC)(NC(=O)c1c(C)nn2c1N[C@@H](c1ccccc1)CC2(C)C)c1ccc(C)cc1.Cl attribute_measured=solubility meas_value=0.38
compound=CCC(CC)(NC(=O)c1cnn2c1N[C@@H](c1ccccc1)CC2(C)C)c1ccc(C)cc1.Cl attribute_measured=solubility meas_value=0.78

Now let's try a different one.
The compound listed as CCC(CC)(NC(=O)c1c(C)nn2c1NC(c1ccccc1)CC2(C)C)c1ccc(C)cc1.Cl (racemic) has a reported solubility of 0.19
